Catalogue of compounds with associated percentage damage caused to the plant, AMARE
Tested on: Amaranthus retoflexus (AMARE)
Test: Post-emergence test, glasshouse
Type: in vivo
Conditions: 250 g/ha, evaluated after 13 days, Table B1
Measurement type: percentage damage caused to the plant, AMARE

{"columns": ["Compound", "System tested", "Value measured"],
 "data": [
  ["FC(F)(F)c1cc(Oc2ncc(Cl)cn2)n(-c2ccc(Cl)cc2)n1 [Compound 1.002]", "Amaranthus retoflexus (AMARE)", "5 (5=81-100%)"],
  ["Fc1cnc(Oc2cc(C(F)(F)F)nn2-c2ccc(C(F)(F)F)cc2)nc1 [Compound 1.021]", "Amaranthus retoflexus (AMARE)", "4 (4=61-80%)"],
  ["FC(F)(F)c1cccc(-n2nc(C(F)(F)F)cc2Oc2ncc(Cl)cn2)c1 [Compound 1.003]", "Amaranthus retoflexus (AMARE)", "5 (5=81-100%)"],
  ["Cc1ccc(-n2nc(C(F)(F)F)cc2Oc2ncc(Cl)cn2)nn1 [Compound 1.012]", "Amaranthus retoflexus (AMARE)", "2 (2=21-40%)"]
]}
